# TARGET_UNDER_TEST: hOGG1 (Homo sapiens)
# Sequence (O15527 12-323): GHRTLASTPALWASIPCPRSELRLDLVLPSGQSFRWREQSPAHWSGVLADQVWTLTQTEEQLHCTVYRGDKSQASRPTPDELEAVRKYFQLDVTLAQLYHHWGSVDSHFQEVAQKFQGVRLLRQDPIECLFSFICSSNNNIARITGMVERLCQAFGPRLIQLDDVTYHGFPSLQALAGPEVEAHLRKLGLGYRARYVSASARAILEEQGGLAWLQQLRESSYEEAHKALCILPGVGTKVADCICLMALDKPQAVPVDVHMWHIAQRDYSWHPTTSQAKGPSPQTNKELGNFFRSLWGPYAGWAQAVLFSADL
# TEST_SUMMARY: Surface Plasma Resonance with hOGG1 to measure compound affinity (OGG1 SPR Kd)
# EXPERIMENTAL_CONTEXT: Biacore T-200, immobilized his-tagged OGG1; pH 7.4; 2% DMSO; single-cycle kinetics
pKd: −log10 of the molar value.
MEASUREMENT_TYPE: pKd

INSERT INTO assay_data (molecule, result) VALUES
  ('COc1cc(NC(=O)[C@H]2CC[C@@H](N3Cc4c(C)ccc(OCC5CNC5)c4NC3=O)CC2)ccc1C [Example 44]', '7.00 to 8.00'),
  ('COc1cc(NC(=O)[C@H]2CC[C@@H](N3Cc4c(C)cc(N5CC6(COC6)C5)cc4NC3=O)CC2)ccc1C [Example 30]', '6.00 to 7.00'),
  ('COc1cc(NC(=O)[C@H]2CC[C@@H](N3Cc4c(C)ccc(C#N)c4C3=O)CC2)ccc1C [Example 143]', '7.00 to 8.00'),
  ('COc1ccc(NC(=O)[C@H]2CC[C@@H](N3Cc4c(C)ccnc4NC3=O)CC2)cc1 [Example 15]', '7.00 to 8.00'),
  ('COc1cc(NC(=O)[C@H]2CC[C@@H](N3Cc4c(C)ccc(N5CC6(COC6)C5)c4NC3=O)CC2)ccc1C [Example 35]', '7.00 to 8.00'),
  ('COc1ccc(NC(=O)[C@H]2CC[C@@H](N3Cc4c(C)ccnc4NC3=O)CC2)cc1C [Example 16]', '≥ 8.00'),
  ('COc1cc(NC(=O)[C@H]2CC[C@@H](N3Cc4c(C)ccc(CNC(C)=O)c4NC3=O)CC2)ccc1C [Example 17]', '≥ 8.00'),
  ('COc1cc(NC(=O)[C@H]2CC[C@@H](N3Cc4c(C)ccc(C#N)c4NC3=O)CC2)ccc1C [Example 59]', '7.00 to 8.00'),
  ('COc1ccc(NC(=O)[C@]2(C)CC[C@H](N3Cc4c(C)ccc(OC)c4NC3=O)CC2)cc1C (single isomer, unassigned) [Example 11]', '≥ 8.00'),
  ('CNCCNc1cc(C)c2c(c1)C(=O)N([C@H]1CC[C@@H](C(=O)Nc3ccc(C)c(OC)c3)CC1)C2 [Example 193]', '7.00 to 8.00'),
  ('COc1cc(NC(=O)[C@H]2CC[C@@H](N3Cc4ccccc4NC3=O)CC2)ccc1C [Example 67]', '7.00 to 8.00'),
  ('COc1ccc(NC(=O)[C@H]2CC[C@@H](N3Cc4c(C)ccc(OC)c4NC3=O)CC2)cc1Cl [Example 3]', '7.00 to 8.00'),
  ('COc1cc(NC(=O)[C@H]2CC[C@@H](N3Cc4c(C)cc(OCCN5CC(F)(F)C5)cc4C3=O)CC2)ccc1C [Example 255]', '7.00 to 8.00'),
  ('COc1cc(NC(=O)[C@H]2CC[C@@H](N3Cc4c(C)ccc(P(C)(C)=O)c4NC3=O)CC2)ccc1C [Example 5]', '≥ 8.00'),
  ('COc1cc(NC(=O)[C@H]2CC[C@@H](N3Cc4c(C)ccc(CN)c4NC3=O)CC2)ccc1C [Example 58]', '7.00 to 8.00');
